target: Estrogen receptor (Homo sapiens) (UniProt P03372); assay: CCTE_Deisenroth_AIME_384WELL_LUC_Active: CCTE's 384-well Estrogen Receptor Transactivation Assay with AIME metabolic competence (ERTA luciferase; metabolism positive), Deisenroth Lab (AID 2284030)
Sequence (P03372 whole entry, looked up): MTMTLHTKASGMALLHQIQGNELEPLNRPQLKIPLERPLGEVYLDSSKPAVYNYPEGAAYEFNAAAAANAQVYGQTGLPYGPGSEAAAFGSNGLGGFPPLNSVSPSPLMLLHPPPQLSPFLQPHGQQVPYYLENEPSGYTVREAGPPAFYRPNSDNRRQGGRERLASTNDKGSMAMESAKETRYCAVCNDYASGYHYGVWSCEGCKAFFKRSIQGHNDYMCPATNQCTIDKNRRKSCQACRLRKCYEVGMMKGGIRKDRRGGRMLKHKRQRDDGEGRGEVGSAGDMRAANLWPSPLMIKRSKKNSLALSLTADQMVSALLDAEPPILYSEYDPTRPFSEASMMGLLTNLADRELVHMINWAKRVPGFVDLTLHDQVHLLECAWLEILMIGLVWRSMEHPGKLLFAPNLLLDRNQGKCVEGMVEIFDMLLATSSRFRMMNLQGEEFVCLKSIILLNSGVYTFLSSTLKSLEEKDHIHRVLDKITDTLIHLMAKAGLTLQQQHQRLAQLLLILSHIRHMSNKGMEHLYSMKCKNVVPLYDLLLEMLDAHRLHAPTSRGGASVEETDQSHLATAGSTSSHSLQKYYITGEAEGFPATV
Results filed as inconclusive are left out. Calls of active or inactive are those of the source. Rule for the calls: active = hit-call score of the fitted dose curve at least 0.9, where 1 is the maximum; inconclusive = response in the unintended direction; inactive = score below 0.9.
Bench note: report the call from 1.0 for active, 0.0 for inactive

Reference set, count: 6
| compound | assigned_category |
| --- | --- |
| CC(C)(C)OOC(C)(C)C | 0.0 |
| c1ccc2c(c1)Nc1ccccc1S2 | 1.0 |
| OCC1CO1 (configuration not stated) | 0.0 |
| CCCCOCC1CO1 (configuration not stated) | 1.0 |
| CCOP(=S)(Oc1ccc([N+](=O)[O-])cc1)c1ccccc1 (configuration not stated) | 1.0 |
| Nc1cc2c3c(c1)C(c1ccccc1)=N[C@@H](NC(=O)c1cccnc1)C(=O)N3CC2 | 0.0 |

QUERY: # lookup: test call for "CCCCN(CCCC)SN(C)C(=O)Oc1cccc2c1OC(C)(C)C2"
RESULT: 0.0

QUERY: # lookup: test call for CCCCC(CC)COP(=O)(Oc1ccccc1)Oc1ccccc1 (configuration not stated)
RESULT: 1.0

QUERY: # lookup: test call for "CC(Cl)(Cl)C(=O)O"
RESULT: 0.0

QUERY: # lookup: test call for "COCCOCCO"
RESULT: 0.0

QUERY: # lookup: test call for "Nc1ccc2ccccc2c1"
RESULT: 1.0

QUERY: # lookup: test call for "CCCCc1ccc(O)cc1"
RESULT: 1.0

Data origin, for the record: PubChem BioAssay (EPA / NIEHS)
